measurement protocol: High Throughput Screening for Foot and Mouth Disease Virus Antivirals; further: nearly all actives have a fitted effect of over 45% in size
measurement conditions: FMDV antiviral cell-based qHTS; series mostly up to 57.9 µM
Out of some 410,000 compounds screened, about 5,100 (1.2%) were called active. Another 8% or so got no clear call; they are omitted. The call rests on the fitted dose curve; tested in HEK293T cells. Many of the other results were omitted from the sample, so actives are more common in it than they were.
Give one outcome, nothing more. List: active, inactive

Worked examples follow.
COCCN1CCN(C(=O)c2sc3ncnc(NCC4CCCO4)c3c2C)CC1 (stereo unspecified); inactive
CC(C)OCCCNc1ncnc2c1[nH]c1ccc(F)cc12; active
CC(C)CNc1ncnc2c1cnn2Cc1ccc(Cl)cc1; inactive

Per the records of this test, what outcome belongs to CSc1ccccc1N1CCN(CCCCCC(=O)NC2CCCc3ccccc32)CC1 (stereo unspecified) ?
inactive

Same read-out for "CC(C)NC(=O)N1CCCC2(CCN(C(=O)c3cccn3C)CC2)C1" ?
inactive

Same read-out for "COc1ccc(C(=O)N2CCC[C@@]3(CCN(C(=O)NC(C)C)C3)C2)cc1" ?
inactive

###

measurement protocol: High Throughput Screening for Foot and Mouth Disease Virus Antivirals; further: nearly all actives have a fitted effect of over 45% in size
measurement conditions: FMDV antiviral cell-based qHTS; series mostly up to 57.9 µM
The campaign covered roughly 410,000 compounds. About 5,100 (1.2%) were called active. About 8% were inconclusive and are not listed. The call rests on the fitted dose curve; tested in HEK293T cells. What follows is part of a selection rich in actives, with near analogues and random picks from the rest.
Give one outcome, nothing more. List: active, inactive

COC(C)C(C(=O)OCC1=CCN2CC[C@H](O)[C@@H]12)C(C)C (stereo not given in full); inactive
CCCC(=O)Nc1ccc(C(=O)N/N=C/c2ccc[nH]2)cc1; active
Cc1nnc2n1N=C(c1ccc3c(c1)NC(=O)CO3)CS2; inactive

Attention now turns to another entry.
Per the records of this test, what outcome belongs to "CC(=O)Nc1cc(C(=O)NCc2ccc(F)cc2Cl)ccc1Sc1ccc(Cl)cc1" ?
inactive

###

measurement protocol: High Throughput Screening for Foot and Mouth Disease Virus Antivirals; further: nearly all actives have a fitted effect of over 45% in size
measurement conditions: FMDV antiviral cell-based qHTS; series mostly up to 57.9 µM
Out of some 410,000 compounds screened, about 5,100 (1.2%) were called active. Not shown: some 8% with an inconclusive outcome. Calls follow the shape of the full dose curve; tested in HEK293T cells. This excerpt belongs to a sample that is enriched for actives.
Give one outcome, nothing more. List: active, inactive

Worked examples follow.
COc1ncc2nc(-c3ccc(Cl)cc3)c(=O)n(C)c2n1; inactive
Cc1cc(C(=O)CSc2nc(N)cc(=O)[nH]2)c(C)n1CCc1ccc(Cl)cc1; active
O=C(c1ccco1)N1CCC[C@@]2(CCN(Cc3nccs3)C2)C1; inactive
CCOc1ccc(N(CC)C(=O)c2noc3c2COc2ccc(C)cc2-3)cc1; inactive
COc1cccc(-c2ccc(O)c(CNC3CN4CCC3CC4)c2)n1 (stereo not given); inactive
O=C(Nc1cc(-c2nc3ccccc3o2)ccc1Cl)c1cc([N+](=O)[O-])ccc1N1CCOCC1; inactive

Per the records of this test, what outcome belongs to "CN(C)C(=O)[C@@H]1C[C@@H](Sc2nc3ccccc3[nH]2)CN1Cc1ccc(Cl)cc1" ?
inactive

Same read-out for "CCOc1c(Br)cc(/C=C2\C(=O)N(CCC#N)N=C2C)cc1OC" ?
active

Same read-out for "Cc1ccc(S(=O)(=O)c2cn(Cc3ccccc3)c3cc(N4CCCC4)c(F)cc3c2=O)c(C)c1" ?
inactive

Same read-out for "CCCCc1nnc(NC(=O)CSc2nc(N)cc(=O)[nH]2)s1" ?
inactive

###

measurement protocol: High Throughput Screening for Foot and Mouth Disease Virus Antivirals; further: nearly all actives have a fitted effect of over 45% in size
measurement conditions: FMDV antiviral cell-based qHTS; series mostly up to 57.9 µM
Hit rate of the full screen: of about 410,000 compounds, about 5,100 (1.2%) were called active. Inconclusive results (about 8%) are left out. Calls come from the whole dose curve; tested in HEK293T cells. The full list was thinned out, with actives kept by preference.
Give one outcome, nothing more. List: 1 (yes) for active, 0 (no) for inactive

Worked examples follow.
CCOC(=O)c1c(NC(=O)c2cc(-c3ccc(Cl)cc3)on2)sc2c1CCCC2; 0 (no)
O=C(Nc1nc2ccc(F)cc2s1)c1nc(SCc2ccccc2F)ncc1Cl; 0 (no)
CCOC(=O)c1c(SCC(=O)Nc2cccc(C)c2C)nc(=O)[nH]c1C; 0 (no)
Cc1ccnc(NS(=O)(=O)c2ccc(NC(=O)c3ccc(S(=O)(=O)N4CCOCC4)cc3)cc2)n1; 0 (no)
O=c1c(-c2ccc(F)cc2)nc2cncnc2n1-c1ccccc1; 0 (no)

Per the records of this test, what outcome belongs to "O=C(Nc1cccc(F)c1)N1CC2(CCN(C(=O)c3cnccn3)CC2)C1" ?
0 (no)

Same read-out for "Cc1cccc(NC(=O)Cn2cc(S(=O)(=O)Cc3ccccc3Cl)c3ccccc32)c1" ?
0 (no)

Same read-out for "CCCSc1ncc(Cl)c(C(=O)Nc2c(C(=O)Nc3ccccc3)oc3ccccc23)n1" ?
0 (no)

Same read-out for "COc1ccc(S(=O)(=O)NCc2cccn2Cc2cccc(C)c2)cc1" ?
0 (no)

Same read-out for "COc1ccc(C(=O)Nc2nc(-c3ccc(S(=O)(=O)N4CCOCC4)cc3)cs2)cc1" ?
1 (yes)

###

measurement protocol: High Throughput Screening for Foot and Mouth Disease Virus Antivirals; further: nearly all actives have a fitted effect of over 45% in size
measurement conditions: FMDV antiviral cell-based qHTS; series mostly up to 57.9 µM
Hit rate of the full screen: of about 410,000 compounds, about 5,100 (1.2%) were called active. Not shown: some 8% with an inconclusive outcome. The call rests on the fitted dose curve; tested in HEK293T cells. The sample as a whole holds a higher share of actives than the screen did.
Give one outcome, nothing more. List: active, inactive

Worked examples follow.
O=c1c(O)c(Br)ccc2c(Br)c(O)c(O)c(O)c12; inactive
CC1(C(=O)O)CCN1C(=O)/C=C/c1ccccc1 (configuration not stated); inactive
CC(=O)c1c(O)c(C)c(O)c(Cc2c(O)c3c(c(C(=O)/C=C/c4ccccc4)c2O)OC(C)(C)C=C3)c1O; inactive
COc1ccc(/C=C2\NC(=O)[C@@H]3Cc4ccccc4CN3C2=O)cc1; inactive
Cc1c(C(=O)N2CCCC2)oc2c1-c1nn(CC(=O)NCc3ccc(OC(C)C)cc3)cc1CC2; active
COCCn1c(=O)c(CCc2ccccc2)nc2cncnc21; inactive
O=C(CSc1nc(Nc2ccccc2)nc(N2CCOCC2)n1)Nc1cc(Cl)ccc1O; active
COc1ccc(C(=O)NC2CCCc3c2cnn3-c2cccc(C)c2C)c(OC)n1 (configuration not stated); active

Per the records of this test, what outcome belongs to COc1ccc(CCNC(=O)C(=O)NCC(c2ccco2)S(=O)(=O)c2cccs2)cc1OC (configuration not stated) ?
inactive

Same read-out for "COc1cccc(C(=O)Nc2c3c(nn2-c2cccc(C)c2C)CS(=O)(=O)C3)c1OC" ?
inactive

Same read-out for "CC(=O)N1CCCc2cc(S(=O)(=O)N3CCC(C(=O)NC4CCCCC4)CC3)ccc21" ?
inactive

Same read-out for "COc1cccc(N2CCN(S(=O)(=O)c3ccc4c(c3)CCCN4C(C)=O)CC2)c1" ?
inactive

Same read-out for COc1ccc(C2Nc3ccccc3C(=O)N2c2ccc(Cl)cc2)cc1Cn1cc([N+](=O)[O-])cn1 (configuration not stated) ?
active

Same read-out for "Cc1ccc(-n2cc3ccc([N+](=O)[O-])cc3n2)cc1" ?
inactive

Same read-out for "CCc1c2c(nc3ccc(O)cc13)-c1cc3c(c(=O)n1C2)COC(=O)[C@]3(O)CC" ?
inactive

Same read-out for "CCc1ccc(NC(=O)c2cnc3c(-c4ccccc4)c(C)nn3c2C)cc1" ?
inactive

###

measurement protocol: High Throughput Screening for Foot and Mouth Disease Virus Antivirals; further: nearly all actives have a fitted effect of over 45% in size
measurement conditions: FMDV antiviral cell-based qHTS; series mostly up to 57.9 µM
In all, about 410,000 compounds went through this assay and about 5,100 (1.2%) were called active. Roughly 8% stayed inconclusive and do not appear here. Calls follow the shape of the full dose curve; tested in HEK293T cells. For the sample, actives were picked, then their nearest neighbours and some compounds at random.
Give one outcome, nothing more. List: active, inactive

Worked examples follow.
c1ccc2c(c1)[I+]c1ccccc1-2; inactive
CC(C)(C)OC(=O)NNc1c2ccccc2nc2ccccc12; active
COc1ccc(CNC(=O)c2cc3cccc(OC)c3oc2=O)cc1; inactive
COc1ccc(C)cc1N1C(=O)[C@@H]2C[C@H]1CN2Cc1cccc(OC)c1O; inactive
Cc1ccc(C(=O)NNC(=O)OC(C)(C)C)c(Cl)c1; inactive
COc1cc(=O)n2c(c1C(=O)N(C)Cc1nccs1)CCN(Cc1ccc(Cl)cc1)CC2; inactive
COc1ccc(CNC(=O)c2c[nH]c3c(OC)cc(OC)cc3c2=O)cc1; inactive
CC1O[C@@H](Oc2c(-c3ccc(O)c(O)c3)oc3cc(O)cc(O)c3c2=O)C(O)C(O)C1O (stereo partly specified); inactive
CC(C)(C)OC(=O)N[C@H](C(=O)OC(C)(C)C)c1ccc(Br)cc1; inactive
COc1ccc(CNC(=O)/C(C#N)=C/c2cccc(OC)c2OC)cc1; active

Per the records of this test, what outcome belongs to "CS(=O)(=O)N1CCC2(CC1)CN(c1ccncc1)C2" ?
inactive
